Some compounds, each annotated with its measured MIC.
- System: Staphylococcus aureus X400
- Run Description: MIC, standard agar-dilution assay
- Type: cell-based
Give a bare numeral; the unit mg/L is implied.

Compound	Value Measured
CCCCCCCCCNC1(C)CC(OC2C(Oc3c4cc5cc3Oc3ccc(cc3Cl)C(O)C3NC(=O)C(NC(=O)C5NC(=O)C(CC(N)=O)NC(=O)C(NC(=O)C(CC(C)C)NC)C(O)c5ccc(c(Cl)c5)O4)c4ccc(O)c(c4)-c4c(O)cc(O)cc4C(C(=O)O)NC3=O)OC(CO)C(O)C2O)OC(C)C1O (centres unmarked)	0.25
CCCCCCCCCCNC1(C)CC(OC2C(Oc3c4cc5cc3Oc3ccc(cc3Cl)C(O)C(NC(=O)C(CC(C)C)N(C)CCCCCCCCCC)C(=O)NC(CC(N)=O)C(=O)NC5C(=O)NC3C(=O)NC(C(=O)NC(C(=O)O)c5cc(O)cc(O)c5-c5cc3ccc5O)C(O)c3ccc(c(Cl)c3)O4)OC(CO)C(O)C2O)OC(C)C1O (centres unmarked)	4
CCCCCCCCCCNC1(C)CC(OC2C(Oc3c4cc5cc3Oc3ccc(cc3Cl)C(O)C(NC(=O)C(CC(C)C)[N+](C)(C)C)C(=O)NC(CC(N)=O)C(=O)NC5C(=O)NC3C(=O)NC(C(=O)NC(C(=O)[O-])c5cc(O)cc(O)c5-c5cc3ccc5O)C(O)c3ccc(c(Cl)c3)O4)OC(CO)C(O)C2O)OC(C)C1O (centres unmarked) [Compound 124, N^van --(n-decyl)-M43A]	0.5
CCCCCCCCNC1(C)CC(OC2C(Oc3c4cc5cc3Oc3ccc(cc3Cl)C(O)C(NC(=O)C(CC(C)C)N(C)CCCCCCCC)C(=O)NC(CC(N)=O)C(=O)NC5C(=O)NC3C(=O)NC(C(=O)NC(C(=O)O)c5cc(O)cc(O)c5-c5cc3ccc5O)C(O)c3ccc(c(Cl)c3)O4)OC(CO)C(O)C2O)OC(C)C1O (centres unmarked)	1
CCCCNC1(C)CC(OC2C(Oc3c4cc5cc3Oc3ccc(cc3Cl)C(O)C3NC(=O)C(NC(=O)C5NC(=O)C(CC(N)=O)NC(=O)C(NC(=O)C(CC(C)C)NC)C(O)c5ccc(c(Cl)c5)O4)c4ccc(O)c(c4)-c4c(O)cc(O)cc4C(C(=O)O)NC3=O)OC(CO)C(O)C2O)OC(C)C1O (centres unmarked)	1

Just so you know, measured MIC for CCCCCCCCCCN(C)C(CC(C)C)C(=O)NC1C(=O)NC(CC(N)=O)C(=O)NC2C(=O)NC3C(=O)NC(C(=O)NC(C(=O)O)c4cc(O)cc(O)c4-c4cc3ccc4O)C(O)c3ccc(c(Cl)c3)Oc3cc2cc(c3OC2OC(CO)C(O)C(O)C2OC2CC(C)(N)C(O)C(C)O2)Oc2ccc(cc2Cl)C1O (centres unmarked) came out at 0.5

Just so you know, measured MIC for CCCCNC1(C)CC(OC2C(Oc3c4cc5cc3Oc3ccc(cc3Cl)C(O)C(NC(=O)C(CC(C)C)N(C)CCCC)C(=O)NC(CC(N)=O)C(=O)NC5C(=O)NC3C(=O)NC(C(=O)NC(C(=O)O)c5cc(O)cc(O)c5-c5cc3ccc5O)C(O)c3ccc(c(Cl)c3)O4)OC(CO)C(O)C2O)OC(C)C1O (centres unmarked) came out at 1

Just so you know, measured MIC for CCCCCCCCNC1(C)CC(OC2C(Oc3c4cc5cc3Oc3ccc(cc3Cl)C(O)C3NC(=O)C(NC(=O)C5NC(=O)C(CC(N)=O)NC(=O)C(NC(=O)C(CC(C)C)NC)C(O)c5ccc(c(Cl)c5)O4)c4ccc(O)c(c4)-c4c(O)cc(O)cc4C(C(=O)O)NC3=O)OC(CO)C(O)C2O)OC(C)C1O (centres unmarked) came out at 0.25
